assay: In vivo pharmacokinetics study, tail vein; set-up: species or system SD rats; details: SD, rat, plasma; intravenous, 17 mg kg^−1 Cur, n = 3
READOUT TYPE: Cmax
State the result as a value with its unit after it.

Ask | Query (compound): `COc1cc(/C=C/C(=O)CC(=O)/C=C/c2ccc(O)c(OC)c2)ccc1O` ; field requested: Cmax
Reply | 12900 ng/mL

* * *

experiment: In vivo pharmacokinetics study, tail vein; set-up: species or system SD rats; conditions: SD, rat, plasma; intravenous, 17 mg kg^−1 Cur, n = 3
READOUT TYPE: AUC(0-t)

Ask | Query (compound): `COc1cc(/C=C/C(=O)CC(=O)/C=C/c2ccc(O)c(OC)c2)ccc1O` ; field requested: AUC(0-t)
Reply | 5280 ng·h/mL
